# target.entity: T1, human monomeric MuSK FLAG streptavidin (in house produced, batch 27-6-2019) (human, UniProt O15146 24-495)
# T1 construct: also called full length MuSK; not shown: FLAG and streptavidin tags
# T1 sequence: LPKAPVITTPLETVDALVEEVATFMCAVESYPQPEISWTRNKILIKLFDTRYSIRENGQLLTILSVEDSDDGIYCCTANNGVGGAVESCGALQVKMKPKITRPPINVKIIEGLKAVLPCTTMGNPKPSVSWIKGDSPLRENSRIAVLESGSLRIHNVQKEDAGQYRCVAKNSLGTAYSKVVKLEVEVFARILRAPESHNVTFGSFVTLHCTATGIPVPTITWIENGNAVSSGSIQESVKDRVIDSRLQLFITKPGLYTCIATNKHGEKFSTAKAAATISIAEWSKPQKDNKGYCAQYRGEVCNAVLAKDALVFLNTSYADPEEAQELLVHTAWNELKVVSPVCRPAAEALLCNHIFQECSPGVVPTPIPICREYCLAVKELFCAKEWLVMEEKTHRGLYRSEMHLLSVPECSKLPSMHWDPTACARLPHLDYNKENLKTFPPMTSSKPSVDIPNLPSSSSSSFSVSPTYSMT
# procedure.summary: epitope binning ELISA (coated anti-MuSK Fab, MuSK, IgG, anti-Fc HRP); competitor: 3F6c
measure: OD 450 nm
Answer shape: numeric part, then the unit.

Here are 4 binders together with their reported answers.
binder | OD 450 nm
4D3 (antibody, human IgG1, kappa, L234A L235A, V domains shown) VH: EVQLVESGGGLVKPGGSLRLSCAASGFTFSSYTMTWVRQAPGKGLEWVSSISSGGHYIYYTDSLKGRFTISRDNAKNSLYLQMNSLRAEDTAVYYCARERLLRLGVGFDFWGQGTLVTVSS VL: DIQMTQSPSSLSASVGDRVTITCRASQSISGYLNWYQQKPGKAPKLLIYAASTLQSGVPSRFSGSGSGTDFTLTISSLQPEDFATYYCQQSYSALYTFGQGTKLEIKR | 0.1 OD
3B5 (antibody, V domains shown, also called 3B5wt) VH: QVQLVQSGAVVAKPGASVQVSCKTSGYTFTGQYLHWVRQAPGQGLEWIGWINPSSGVTKFAEKFEGRATMTRDTSITTAYIDLRSLRSDDTATYYCATLSLGVYYVGMVAWGQGTLVTVSS VL: ELTQPPSVSVSPGQTATITCSGDGLAQQHVYWFQQRPGQAPLLIIYKDIERPSGIPERFSGSSSGTTAMLTISGVQAEDEADYYCQSGDRTATSVLFGGGTKMTVLG | 2.03 OD
3D10a (antibody, human IgG1, kappa, L234A L235A, V domains shown) VH: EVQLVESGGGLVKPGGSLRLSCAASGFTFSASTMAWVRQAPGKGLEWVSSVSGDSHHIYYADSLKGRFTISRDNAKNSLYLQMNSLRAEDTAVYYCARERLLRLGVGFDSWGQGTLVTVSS VL: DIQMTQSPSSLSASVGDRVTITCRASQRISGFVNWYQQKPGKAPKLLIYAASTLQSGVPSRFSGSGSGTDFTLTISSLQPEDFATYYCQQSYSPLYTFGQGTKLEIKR | 0.162 OD
3F6c (antibody, human IgG1, kappa, L234A L235A, V domains shown) VH: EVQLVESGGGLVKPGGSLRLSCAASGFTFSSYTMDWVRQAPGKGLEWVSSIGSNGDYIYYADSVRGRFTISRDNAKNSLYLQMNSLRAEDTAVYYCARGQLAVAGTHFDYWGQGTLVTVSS VL: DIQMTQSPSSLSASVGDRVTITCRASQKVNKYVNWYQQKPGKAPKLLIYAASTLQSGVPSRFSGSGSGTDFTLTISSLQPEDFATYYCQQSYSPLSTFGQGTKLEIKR | 0.156 OD

Now examine the next entry.
Recorded result, 3D9b (antibody, human IgG1, kappa, L234A L235A, V domains shown) VH: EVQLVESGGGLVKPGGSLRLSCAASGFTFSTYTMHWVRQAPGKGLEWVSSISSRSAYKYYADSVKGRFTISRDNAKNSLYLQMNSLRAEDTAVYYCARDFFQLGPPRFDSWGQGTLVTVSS VL: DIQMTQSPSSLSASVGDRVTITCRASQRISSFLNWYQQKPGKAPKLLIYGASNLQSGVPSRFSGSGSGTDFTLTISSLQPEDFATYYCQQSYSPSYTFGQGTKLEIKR , OD 450 nm: 0.186 OD
